assay: RAM pathway blockade in budding yeast – dse1pr::URA3 reporter, 5-FOA selection, pilot screen (AID 869);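 further: 0% = DMSO wells with no growth and 100% = 10 µM 1-NA-PP1 with full growth; RAM network block rescues cells from 5-FOA so hits raise OD615 growth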; details: S. cerevisiae dse1pr::URA3 5-FOA growth, OD615, 2 d; at 10 µM; active compounds read high; strain carries analog-sensitive mutant Cbk1 kinase
inhibition overview
# number only, unit % dropped from output

// known answers, use as guide
Query :: Using the record for CCOc1ccc(Cn2nnc(C(=O)NCc3ccc(OC)cc3)c2N)cc1 , state its measured inhibition.
Result :: 2.19

Query :: Using the record for O=C(CC1Oc2ccccc2NC1=O)NCCc1ccccc1 (stereo unspecified) , state its measured inhibition.
Result :: 2.94

New cases:
Query :: Using the record for O=C(CCN1C(=O)c2ccccc2C1=O)NCCN1CCOCC1 , state its measured inhibition.
Result :: 0.42

Query :: Using the record for Cc1ccc2oc(=O)c3cnn(CC(=O)N4CCCCC4C)c3c2c1 (stereo unspecified) , state its measured inhibition.
Result :: 3.4

Query :: Using the record for NC(=O)c1cccc2c1C(=O)N(C1CCCCC1)C2 , state its measured inhibition.
Result :: 0.59

Query :: Using the record for Fc1ccc(-c2nnc(-c3ccc(Cl)cc3Cl)o2)cc1 , state its measured inhibition.
Result :: 3.06

Query :: Using the record for COc1ccccc1CNC(=O)C1CCC(CNc2c(N3CCOCC3)c(=O)c2=O)CC1 (stereo unspecified) , state its measured inhibition.
Result :: 1.35

Query :: Using the record for CCOc1cccc(NC(=O)Cc2cccs2)c1 , state its measured inhibition.
Result :: 1.06

Query :: Using the record for CN1CCN(C2=C(Cl)C(=O)N(c3cccc(Cl)c3)C2=O)CC1 , state its measured inhibition.
Result :: 0.75

Query :: Using the record for Cc1ccc(S(=O)(=O)c2nc(-c3ccco3)oc2SCC(=O)NCC2CCCO2)cc1 (stereo unspecified) , state its measured inhibition.
Result :: 1.47

Query :: Using the record for COc1ccc(N2CCN(C(=O)c3ccc4nc(N5CCCCC5)sc4c3)CC2)cc1 , state its measured inhibition.
Result :: 2.52

----------
experiment: yeast transport mutant growth inhibition pilot in 384-well plates, post-Golgi transport modulator project (AID 636); conditions: absorbance 615 nm, about 18 h, active compounds read high
Observed property: inhibition (%)
# number only, unit % dropped from output

Query :: Using the record for Cc1cccc(OCc2nc(C#N)c(NCCN(C)C)o2)c1 , state its measured inhibition.
Result :: -2.4

Query :: Using the record for O=C(NCc1ccc2c(c1)OCO2)C1CCC(CNc2c(N3CCCCC3)c(=O)c2=O)CC1 (configuration not stated) , state its measured inhibition.
Result :: 0.64

Query :: Using the record for Cc1cccc(C)c1OCc1nnc(SCC(=O)Nc2ccccc2F)o1 , state its measured inhibition.
Result :: -5.2

New cases:
Query :: Using the record for O=C(c1ccco1)c1nnn(Cc2ccccc2)c1-c1ccccc1 , state its measured inhibition.
Result :: -2.93

Query :: Using the record for CCn1c(SCC(=O)Nc2cc(C)ccc2C)nc2c(c1=O)SC(C)C2 (configuration not stated) , state its measured inhibition.
Result :: -1.73

Query :: Using the record for O=C(O)c1ccccc1S(=O)(=O)NCC(O)COc1ccc(Br)cc1 (configuration not stated) , state its measured inhibition.
Result :: -2.47

Query :: Using the record for COc1ccc(NC(=O)CSc2nnc(Cc3cccn3C)n2-c2ccc(F)cc2)cc1 , state its measured inhibition.
Result :: -2.27

Query :: Using the record for Cc1cc(C)c(C(=O)Nc2ccc(S(=O)(=O)Nc3onc(C)c3C)cc2)c(C)c1 , state its measured inhibition.
Result :: -6.27

Query :: Using the record for CCOC(=O)N1CCC(NC(=O)Cn2c3c(c(-c4ccccc4Cl)cc2=O)CCC3)CC1 , state its measured inhibition.
Result :: -6.67

Query :: Using the record for Cc1cc(OCC(=O)NCCO)cc(C)c1Cl , state its measured inhibition.
Result :: 1.56

Query :: Using the record for CCOC(=O)c1c(C)n(C)c2c(C)cc(O)c(OC(C)=O)c12 , state its measured inhibition.
Result :: -3.9

Query :: Using the record for Cc1c(NC(=O)c2ccc(Br)o2)c(=O)n(-c2ccccc2)n1C , state its measured inhibition.
Result :: -5.06
